Entry source: patent US4439426A

Consider the following molecules and their measured MIC readings.
- System: Streptococcus pyogenes ATCC 8668 LRP 34
- assay-info: Bacteriostatic power in solid medium (MIC)
- Type: cell-based
- run-parameters: Streptococcus pyogenes, ATCC8668; solid medium; read-out: Minimum inhibiting concentration
Enter your answer as a number in µg/mL; do not include the unit.

Some molecules with known MIC results, for comparison:
CC[C@H]1OC(=O)[C@H](C)[C@@H](O[C@H]2C[C@@](C)(OC)[C@@H](O)[C@H](C)O2)[C@H](C)[C@@H](O[C@@H]2O[C@H](C)C[C@H](N(C)C)[C@H]2O)[C@](C)(O)C[C@@H](C)C(=O)[C@H](C)[C@@H](O)[C@H]1C [Erythromycin B, reference compound] = 0.024
CC[C@H]1OC(=O)[C@H](C)[C@@H](O[C@H]2C[C@@](C)(O)[C@@H](O)[C@H](C)O2)[C@H](C)[C@@H](O[C@@H]2O[C@H](C)C[C@H](N(C)C)[C@H]2O)[C@](C)(O)C[C@](C)(F)C(=O)[C@H](C)[C@@H](O)[C@H]1C = 0.024
CC[C@H]1OC(=O)[C@H](C)[C@@H](O[C@H]2C[C@@](C)(O)[C@@H](O)[C@H](C)O2)[C@H](C)[C@@H](O[C@@H]2O[C@H](C)C[C@H](N(C)C)[C@H]2O)[C@](C)(O)C[C@](C)(F)C(=O)[C@H](C)[C@@H](O)[C@]1(C)O = 0.024

Look up MIC for this molecule: CO[C@H]1C[C@H](O[C@H]2[C@H](C)[C@@H](O[C@@H]3O[C@H](C)C[C@H](N(C)C)[C@H]3O)[C@@H](C)C[C@@]3(CO3)C(=O)[C@H](C)[C@@H](O)[C@@H](C)[C@@H](C)OC(=O)[C@@H]2C)O[C@@H](C)[C@@H]1O [Oleandomycin, reference compound]
0.195

For the molecule CC[C@H]1OC(=O)[C@H](C)[C@@H](O[C@H]2C[C@@](C)(OC)[C@@H](O)[C@H](C)O2)[C@H](C)[C@@H](O[C@@H]2O[C@H](C)C[C@H](N(C)C)[C@H]2O)[C@](C)(O)C[C@](C)(F)C(=O)[C@H](C)[C@@H](O)[C@H]1C , what MIC is on record?
0.024

---

MIC overview
- Tested on: Escherichia coli LRP 50
- assay-info: Bacteriostatic power in solid medium (MIC)
- Format: cell-based
- run-parameters: Escherichia coli, LRP50, read-out: Minimum inhibiting concentration
Write down the numeric answer in µg/mL and omit the unit.

Below are worked cases with known answers.
CC[C@H]1OC(=O)[C@H](C)[C@@H](O[C@H]2C[C@H](OC)[C@@H](O)[C@H](C)O2)[C@H](C)[C@@H](O[C@@H]2O[C@H](C)C[C@H](N(C)C)[C@H]2O)[C@](C)(O)C[C@](C)(F)C(=O)[C@H](C)[C@@H](O)[C@]1(C)O = 25
CC[C@H]1OC(=O)[C@H](C)[C@@H](O[C@H]2C[C@@](C)(O)[C@@H](O)[C@H](C)O2)[C@H](C)[C@@H](O[C@@H]2O[C@H](C)C[C@H](N(C)C)[C@H]2O)[C@](C)(O)C[C@](C)(F)C(=O)[C@H](C)[C@@H](O)[C@]1(C)O = 12.5
CC[C@H]1OC(=O)[C@H](C)[C@@H](O[C@H]2C[C@@](C)(OC)[C@@H](O)[C@H](C)O2)[C@H](C)[C@@H](O[C@@H]2O[C@H](C)C[C@H](N(C)C)[C@H]2O)[C@](C)(O)C[C@@H](C)C(=O)[C@H](C)[C@@H](O)[C@]1(C)O [Erythromycin A, reference compound] = 6.25
CC[C@H]1OC(=O)[C@H](C)[C@@H](O[C@H]2C[C@H](OC)[C@@H](O)[C@H](C)O2)[C@H](C)[C@@H](O[C@@H]2O[C@H](C)C[C@H](N(C)C)[C@H]2O)[C@](C)(O)C[C@](C)(F)C(=O)[C@H](C)[C@@H](O)[C@H]1C = 25

Next molecule, please.
Return reported MIC; argument: CC[C@H]1OC(=O)[C@H](C)[C@@H](O[C@H]2C[C@@](C)(OC)[C@@H](O)[C@H](C)O2)[C@H](C)[C@@H](O[C@@H]2O[C@H](C)C[C@H](N(C)C)[C@H]2O)[C@](C)(O)C[C@](C)(F)C(=O)[C@H](C)[C@@H](O)[C@]1(C)O
12.5

---

- Tested on: Klelsiella pneumoniae LRP 54
- assay-info: Bacteriostatic power in solid medium (MIC)
- Format: cell-based
- run-parameters: read-out: Minimum inhibiting concentration
measured-endpoint: MIC (µg/mL)
Your answer should be a plain number; it is taken to be in µg/mL.

The following molecules have reported results that may help.
CC[C@H]1OC(=O)[C@H](C)[C@@H](O[C@H]2C[C@H](OC)[C@@H](O)[C@H](C)O2)[C@H](C)[C@@H](O[C@@H]2O[C@H](C)C[C@H](N(C)C)[C@H]2O)[C@](C)(O)C[C@](C)(F)C(=O)[C@H](C)[C@@H](O)[C@]1(C)O = 25
CC[C@H]1OC(=O)[C@H](C)[C@@H](O[C@H]2C[C@H](OC)[C@@H](O)[C@H](C)O2)[C@H](C)[C@@H](O[C@@H]2O[C@H](C)C[C@H](N(C)C)[C@H]2O)[C@](C)(O)C[C@](C)(F)C(=O)[C@H](C)[C@@H](O)[C@H]1C = 25
CC[C@H]1OC(=O)[C@H](C)[C@@H](O[C@H]2C[C@@](C)(OC)[C@@H](O)[C@H](C)O2)[C@H](C)[C@@H](O[C@@H]2O[C@H](C)C[C@H](N(C)C)[C@H]2O)[C@](C)(O)C[C@](C)(F)C(=O)[C@H](C)[C@@H](O)[C@]1(C)O = 12.5

Moving on to another molecule below.
Name the recorded MIC for CC[C@H]1OC(=O)[C@H](C)[C@@H](O[C@H]2C[C@@](C)(OC)[C@@H](O)[C@H](C)O2)[C@H](C)[C@@H](O[C@@H]2O[C@H](C)C[C@H](N(C)C)[C@H]2O)[C@](C)(O)C[C@@H](C)C(=O)[C@H](C)[C@@H](O)[C@]1(C)O [Erythromycin A, reference compound] .
12.5

---

- Tested on: Acholeplasma laidlawii ATCC 23206 LRP 204
- assay-info: Bacteriostatic power in solid medium (MIC)
- Type: cell-based
- run-parameters: Acholeplasma laidlawii, ATCC23206; solid medium; read-out: Minimum inhibiting concentration
- Description: the bacteriostatic power, expressed as the minimum inhibiting concentration (MIC) against both aerobic and anaerobic, Gram positive and Gram negative, bacterial stocks: the related results are reported in the tables 2 and 3.
List of MIC values.
Supply the numeric figure in µg/mL, leaving out any unit text.

CC[C@H]1OC(=O)[C@H](C)[C@@H](O[C@H]2C[C@@](C)(OC)[C@@H](O)[C@H](C)O2)[C@H](C)[C@@H](O[C@@H]2O[C@H](C)C[C@H](N(C)C)[C@H]2O)[C@](C)(O)C[C@](C)(F)C(=O)[C@H](C)[C@@H](O)[C@H]1C [P-80203, (8S)-8-fluoroerythromycin B] = 0.195

Provide value of MIC for this record tested with Acholeplasma laidlawii ATCC 23206 LRP 204: CC[C@H]1OC(=O)[C@H](C)[C@@H](O[C@H]2C[C@@](C)(OC)[C@@H](O)[C@H](C)O2)[C@H](C)[C@@H](O[C@@H]2O[C@H](C)C[C@H](N(C)C)[C@H]2O)[C@](C)(O)C[C@@H](C)C(=O)[C@H](C)[C@@H](O)[C@H]1C [Erythromycin B, reference compound]
0.097

Recall the recorded MIC for CO[C@H]1C[C@H](O[C@H]2[C@H](C)[C@@H](O[C@@H]3O[C@H](C)C[C@H](N(C)C)[C@H]3O)[C@@H](C)C[C@@]3(CO3)C(=O)[C@H](C)[C@@H](O)[C@@H](C)[C@@H](C)OC(=O)[C@@H]2C)O[C@@H](C)[C@@H]1O [Oleandomycin, reference compound] with Acholeplasma laidlawii ATCC 23206 LRP 204 and state it.
6.25

Write down the reported MIC of CC[C@H]1OC(=O)[C@H](C)[C@@H](O[C@H]2C[C@@](C)(OC)[C@@H](O)[C@H](C)O2)[C@H](C)[C@@H](O[C@@H]2O[C@H](C)C[C@H](N(C)C)[C@H]2O)[C@](C)(O)C[C@@H](C)C(=O)[C@H](C)[C@@H](O)[C@]1(C)O [Erythromycin A, reference compound] , test system: Acholeplasma laidlawii ATCC 23206 LRP 204.
0.097

Look up MIC with Acholeplasma laidlawii ATCC 23206 LRP 204 for this compound: CC[C@H]1OC(=O)[C@H](C)[C@@H](O[C@H]2C[C@@](C)(O)[C@@H](O)[C@H](C)O2)[C@H](C)[C@@H](O[C@@H]2O[C@H](C)C[C@H](N(C)C)[C@H]2O)[C@](C)(O)C[C@](C)(F)C(=O)[C@H](C)[C@@H](O)[C@]1(C)O [P-80205, (8S)-8-fluoroerythromycin C]
3.12
